Cited source: patent US11382898B2

biological target: BAX (Homo sapiens); construct: with serial dilutions of full-length BAX, BCL-XLΔC, MCL-1ΔNΔC, BFL-1/A1ΔC; assay: Competitive fluorescence polarization assay, FITC-BIM SAHBA2 from the BAX trigger site; conditions: FITC-BIM SAHBA2 50 nM, BAX 500 nM; read-out: IC50, competition of FITC-BIM SAHBA2 from BAX
Sequence (Q07812 whole entry): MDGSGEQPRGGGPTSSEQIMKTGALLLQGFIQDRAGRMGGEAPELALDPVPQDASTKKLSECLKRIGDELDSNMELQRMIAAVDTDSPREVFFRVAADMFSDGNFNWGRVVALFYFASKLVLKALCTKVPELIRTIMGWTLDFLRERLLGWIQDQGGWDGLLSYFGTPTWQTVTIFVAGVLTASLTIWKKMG
Outcome measure: IC50 (nM)

1: CC1=NN(c2nc(-c3ccccc3)cs2)C(=O)C1=NNc1nccs1 [BTSA2]
2: O=C(CCCC[C@H]1SCC2NC(=O)NC21)NCCCOCCOCCOCCCNC(=O)c1ccc(-c2csc(N3N=C(c4ccccc4)C(=NNc4nccs4)C3=O)n2)cc1 (some centres unmarked) [biotinylated BTSA1]
Which entry shows the lesser value of IC50 here, 1 or 2 ? Please reply using the label of the selected record.
2
(2: 2000 nM, 1: 3700 nM)
